Target: KRAS G12C (Homo sapiens (Human), UniProt P01116+P62937, G12C)
Sequence (P01116-2 other isoform, or with tags, fused parts or gaps G12C): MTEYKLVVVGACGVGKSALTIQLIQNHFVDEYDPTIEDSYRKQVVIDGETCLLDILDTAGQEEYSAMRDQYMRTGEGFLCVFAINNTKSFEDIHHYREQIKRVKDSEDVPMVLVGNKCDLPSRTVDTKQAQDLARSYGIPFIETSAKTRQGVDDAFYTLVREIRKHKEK
Sequence (P62937 whole entry): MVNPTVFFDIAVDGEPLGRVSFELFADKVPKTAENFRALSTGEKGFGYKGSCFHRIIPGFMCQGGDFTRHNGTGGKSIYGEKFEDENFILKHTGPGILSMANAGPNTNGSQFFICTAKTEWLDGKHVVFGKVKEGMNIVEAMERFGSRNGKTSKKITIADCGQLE
Experiment: Ras-Raf disruption/FRET/MOA assay (BRAF RBD, Cyclophilin A)
Type: biochemical
Conditions: read-out: KRAS G12C FRET IC50
Here, each record is paired with measured IC50 data.

Please review the following examples before continuing.
| molecule | IC50 |
| --- | --- |
| CCn1c(-c2cccnc2[C@H](C)OC)c2c3cc(ccc31)-c1csc(n1)C[C@H](NC(=O)[C@H](C(C)C)N(C)C(=O)N1CC[C@@]13CCCNC3)C(=O)N1CCC[C@H](N1)C(=O)OCC(C)(C)C2 | 100 to 1000 nM |
| CCn1c(-c2cccnc2[C@H](C)OC)c2c3cc(ccc31)-c1cc(O)cc(c1)C[C@H](NC(=O)[C@H](C(C)C)N(C)C(=O)C1CC3(CCOCC3)CO1)C(=O)N1CCC[C@H](N1)C(=O)OCC(C)(C)C2 (stereo partly drawn) | 10 to 100 nM |
| CCn1c(-c2cccnc2[C@H](C)OC)c2c3cc(ccc31)-c1csc(n1)C[C@H](NC(=O)[C@H](C(C)C)N(C)C(=O)N1CC([C@H](C)N(C)C)C1)C(=O)N1CCC[C@H](N1)C(=O)OCC(C)(C)C2 | 10 to 100 nM |
| CCn1c(-c2cccnc2[C@H](C)OC)c2c3cc(ccc31)-c1csc(n1)C[C@H](NC(=O)[C@H](C(C)C)N(C)C(=O)N1CC([C@H](C)COC)C1)C(=O)N1CCC[C@H](N1)C(=O)OCC(C)(C)C2 | 10 to 100 nM |
| CCn1c(-c2cnccc2COC)c2c3cc(ccc31)-c1cc(O)cc(c1)C[C@H](NC(=O)[C@@H](NC(C)=O)C(C)C)C(=O)N1CCC[C@H](N1)C(=O)OCC(C)(C)C2 | 1000 to 10000 nM |
| CCn1c(-c2cccnc2[C@H](C)OC)c2c3cc(ccc31)-c1csc(n1)C[C@H](NC(=O)[C@H](C(C)C)N(C)C(=O)N1CC3(CC(NCCOC)C3)C1)C(=O)N1CCC[C@H](N1)C(=O)OCC(C)(C)C2 | 100 to 1000 nM |

Problem: IC50 lookup needed for CCn1c(-c2cccnc2[C@H](C)OC)c2c3cc(ccc31)-c1csc(n1)C[C@H](NC(=O)[C@H](C(C)C)N(C)C(=O)N1CCCC3(CN(C)C3)C1)C(=O)N1CCC[C@H](N1)C(=O)OCC(C)(C)C2 , thanks.
Solution: 100 to 1000 nM

Problem: IC50 lookup needed for CCn1c(-c2cccnc2[C@H](C)OC)c2c3cc(ccc31)-c1csc(n1)C[C@H](NC(=O)[C@H](C(C)C)N(C)C(=O)N1CC(N3CCOCC3)C1)C(=O)N1CCC[C@H](N1)C(=O)OCC(C)(C)C2 , thanks.
Solution: 10 to 100 nM

Problem: IC50 lookup needed for CCn1c(-c2cccnc2[C@H](C)OC)c2c3cc(ccc31)-c1cc(O)cc(c1)C[C@H](NC(=O)[C@H](C(C)C)N(C)C(=O)[C@H]1OCC[C@H]1c1ccccc1)C(=O)N1CCC[C@H](N1)C(=O)OCC(C)(C)C2 , thanks.
Solution: 100 to 1000 nM
